procedure summary: Pharmacokinetic study of Compound 20 in ICR mice
Type: in vivo
condition info: male, ICR, mouse, plasma, ip, 100 mg/kg, 100 mg/kg i.p., 0.5 h, n = 3, read-out: Plasma Concentration, Mean
readout name: concentration at 0.5 h (ng/mL)
Value expressed in ng/mL; do not type the unit.

query: // lookup concentration at 0.5 h for COc1cc(N(c2ccccc2)c2ccccc2)ccc1/C=C(\C#N)C(=O)O
result: 37300

====

target: MCT1 (Rattus norvegicus (Rat))
Sequence (P53987 whole entry): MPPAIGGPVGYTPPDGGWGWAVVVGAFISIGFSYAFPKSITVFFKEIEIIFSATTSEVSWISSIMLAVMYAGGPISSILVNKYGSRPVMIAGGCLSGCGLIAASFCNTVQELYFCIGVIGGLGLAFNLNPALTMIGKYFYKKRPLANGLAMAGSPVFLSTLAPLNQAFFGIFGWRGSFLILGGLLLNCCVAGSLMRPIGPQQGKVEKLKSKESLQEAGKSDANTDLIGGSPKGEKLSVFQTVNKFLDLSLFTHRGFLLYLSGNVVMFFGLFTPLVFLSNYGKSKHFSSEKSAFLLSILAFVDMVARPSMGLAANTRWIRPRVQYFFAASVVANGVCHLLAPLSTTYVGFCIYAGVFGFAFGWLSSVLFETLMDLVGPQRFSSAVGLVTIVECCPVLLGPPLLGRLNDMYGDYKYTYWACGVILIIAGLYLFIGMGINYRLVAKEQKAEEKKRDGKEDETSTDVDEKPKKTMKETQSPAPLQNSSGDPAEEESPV
Sequence (P26453 141-388 partner): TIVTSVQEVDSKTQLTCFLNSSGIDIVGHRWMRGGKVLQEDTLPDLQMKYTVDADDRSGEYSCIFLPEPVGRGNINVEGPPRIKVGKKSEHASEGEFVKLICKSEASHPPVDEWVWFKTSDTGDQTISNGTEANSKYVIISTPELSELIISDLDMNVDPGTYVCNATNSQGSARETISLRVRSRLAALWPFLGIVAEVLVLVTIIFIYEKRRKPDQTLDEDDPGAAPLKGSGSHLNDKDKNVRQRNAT
procedure summary: Test A. MCT1 inhibition via lactate uptake in rat brain endothelial (RBE4) cells
Type: cell-based
condition info: 14C-lactate uptake
The following compounds are listed with their measured IC50 values.
Value expressed in µM; do not type the unit.

Before answering, review these 2 worked examples.
COc1cc(N(CC(C)C)CC(C)C)ccc1/C=C(\C#N)C(=O)O [Compound 18]: 0.015
CCCN(CCC)c1ccc(/C=C(\C#N)C(=O)O)c(OC)c1 [Compound 13]: 0.0095

Now turn to the next compound.
query: Param readout= IC50; system= MCT1 (Rattus norvegicus (Rat)); entry= O=C(O)c1cc2ccc(N(Cc3ccccc3)Cc3ccccc3)cc2oc1=O [Compound 25] ; returns value.
result: 0.048
